Origin of the recorded values: ChEMBL document CHEMBL5214976

tested on: MGC-803; test: Antitumor activity human MGC-803 cells assessed as inhibition of cell proliferation incubated for 72 hrs by MTT assay; assay type: functional, cell-based; conditions: MGC-803, 72 h
pIC50: −log10 of the molar value.
Parameter: pIC50

Would you please look over these solved cases?
INSERT INTO measurements (structure_notation, measurement) VALUES
  ('C#CCSc1nc(N2CCN(Cc3ccccc3)CC2)c2ccncc2n1', '< 4.10'),
  ('C#CCSc1nc(Nc2ccc([N+](=O)[O-])cc2)c2ccncc2n1', '< 4.10');

Now examine the next entry.
The compound C#CCSc1nc(NCCC#N)c2ccncc2n1 , when measured on MGC-803, yielded pIC50 of < 4.10
